I'd be grateful if you could share measured ΔTm for these entries.
tested.target: Ribosomal protein S6 kinase alpha-3 (Homo sapiens)
# output: number + unit

Reported ΔTm, compound `Nc1n[nH]c2nnc(-c3c(-c4ccccc4)nn4ccccc34)cc12` : ____
3 °C

Reported ΔTm, compound `Nc1cc2ncnc(Nc3cccc(Br)c3)c2cc1N` : ____
0.9 °C

Reported ΔTm, compound C[S+]([O-])c1ccc(CSc2nc(-c3ccc(F)cc3)c(-c3ccncc3)[nH]2)cc1 (stereo unspecified) : ____
0.1 °C

Reported ΔTm, compound `O=C1Nc2ccccc2/C1=C/c1cnc[nH]1` : ____
5.8 °C

Reported ΔTm, compound `CC(C)n1cnc2c(NCc3ccccc3)nc(NCCCO)nc21` : ____
1 °C

Reported ΔTm, compound `O=c1ccc2ccc(O)c(O)c2o1` : ____
0 °C
